Test: Protein binding in mouse plasma assessed as unbound fraction at 30 mg/kg, po
Type: ADME, organism-based
VALUE_KIND: fraction unbound
Reply with just the number.

Challenge: Recorded fraction unbound for "CC(C)(O)c1ccc(-c2nc3c(F)cc(F)cc3c(=O)[nH]2)cc1" , please?
Response given: 0.086

----------
Biological target: Poly [ADP-ribose] polymerase tankyrase-1 (Homo sapiens, UniProt O95271)
Sequence (O95271 whole entry): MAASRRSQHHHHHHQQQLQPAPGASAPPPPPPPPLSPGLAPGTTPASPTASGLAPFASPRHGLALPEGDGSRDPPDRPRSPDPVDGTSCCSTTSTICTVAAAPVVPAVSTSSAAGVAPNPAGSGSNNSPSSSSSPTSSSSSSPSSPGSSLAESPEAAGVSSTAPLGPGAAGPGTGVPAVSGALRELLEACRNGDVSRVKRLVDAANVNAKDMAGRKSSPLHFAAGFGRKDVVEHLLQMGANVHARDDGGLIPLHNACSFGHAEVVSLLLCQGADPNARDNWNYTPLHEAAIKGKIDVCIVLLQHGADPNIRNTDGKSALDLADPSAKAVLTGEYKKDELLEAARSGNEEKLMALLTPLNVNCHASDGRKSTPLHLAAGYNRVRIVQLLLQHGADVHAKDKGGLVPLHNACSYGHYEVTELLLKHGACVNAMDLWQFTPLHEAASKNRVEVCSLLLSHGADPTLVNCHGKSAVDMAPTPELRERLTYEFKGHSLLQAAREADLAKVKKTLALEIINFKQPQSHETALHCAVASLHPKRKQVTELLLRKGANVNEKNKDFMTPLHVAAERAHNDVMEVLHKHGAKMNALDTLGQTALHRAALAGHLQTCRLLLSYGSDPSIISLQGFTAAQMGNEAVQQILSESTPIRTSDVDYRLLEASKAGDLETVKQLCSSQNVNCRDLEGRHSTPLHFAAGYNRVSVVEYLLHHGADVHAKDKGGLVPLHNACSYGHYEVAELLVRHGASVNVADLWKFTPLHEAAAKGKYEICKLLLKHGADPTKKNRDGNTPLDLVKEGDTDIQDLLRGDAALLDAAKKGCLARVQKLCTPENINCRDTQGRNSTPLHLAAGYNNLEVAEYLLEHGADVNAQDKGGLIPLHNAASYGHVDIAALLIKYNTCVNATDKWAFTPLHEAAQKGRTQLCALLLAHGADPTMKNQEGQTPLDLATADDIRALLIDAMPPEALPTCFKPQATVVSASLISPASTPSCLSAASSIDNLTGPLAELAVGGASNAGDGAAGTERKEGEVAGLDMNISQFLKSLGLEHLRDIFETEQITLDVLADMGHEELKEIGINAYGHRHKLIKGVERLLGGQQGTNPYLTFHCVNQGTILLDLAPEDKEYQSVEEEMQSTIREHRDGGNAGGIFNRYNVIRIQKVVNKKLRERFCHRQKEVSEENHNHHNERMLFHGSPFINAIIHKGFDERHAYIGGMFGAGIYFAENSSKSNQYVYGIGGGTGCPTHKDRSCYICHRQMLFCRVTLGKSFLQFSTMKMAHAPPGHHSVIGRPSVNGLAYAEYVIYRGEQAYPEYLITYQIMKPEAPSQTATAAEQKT
Test: biochemical
Description: Inhibition of GST tagged-TEV cleavage site-fused human recombinant TNKS1 (1023 to 1327 residues) expressed in baculovirus infected Sf9 cells assessed as reduction in auto-PARsylation incubated for 90 mins in presence of bio-NAD as co-substrate by TR-FRET assay
VALUE_KIND: IC50 (nM)
Only the number, expressed in nM, is required.

Challenge: Bench note: what IC50 did "O=c1[nH]c(-c2ccc3c(c2)OCO3)nc2ccccc12" show?
Response given: 430

----------
Molecular target: Poly [ADP-ribose] polymerase 1 (Homo sapiens)
Sequence (P09874 whole entry): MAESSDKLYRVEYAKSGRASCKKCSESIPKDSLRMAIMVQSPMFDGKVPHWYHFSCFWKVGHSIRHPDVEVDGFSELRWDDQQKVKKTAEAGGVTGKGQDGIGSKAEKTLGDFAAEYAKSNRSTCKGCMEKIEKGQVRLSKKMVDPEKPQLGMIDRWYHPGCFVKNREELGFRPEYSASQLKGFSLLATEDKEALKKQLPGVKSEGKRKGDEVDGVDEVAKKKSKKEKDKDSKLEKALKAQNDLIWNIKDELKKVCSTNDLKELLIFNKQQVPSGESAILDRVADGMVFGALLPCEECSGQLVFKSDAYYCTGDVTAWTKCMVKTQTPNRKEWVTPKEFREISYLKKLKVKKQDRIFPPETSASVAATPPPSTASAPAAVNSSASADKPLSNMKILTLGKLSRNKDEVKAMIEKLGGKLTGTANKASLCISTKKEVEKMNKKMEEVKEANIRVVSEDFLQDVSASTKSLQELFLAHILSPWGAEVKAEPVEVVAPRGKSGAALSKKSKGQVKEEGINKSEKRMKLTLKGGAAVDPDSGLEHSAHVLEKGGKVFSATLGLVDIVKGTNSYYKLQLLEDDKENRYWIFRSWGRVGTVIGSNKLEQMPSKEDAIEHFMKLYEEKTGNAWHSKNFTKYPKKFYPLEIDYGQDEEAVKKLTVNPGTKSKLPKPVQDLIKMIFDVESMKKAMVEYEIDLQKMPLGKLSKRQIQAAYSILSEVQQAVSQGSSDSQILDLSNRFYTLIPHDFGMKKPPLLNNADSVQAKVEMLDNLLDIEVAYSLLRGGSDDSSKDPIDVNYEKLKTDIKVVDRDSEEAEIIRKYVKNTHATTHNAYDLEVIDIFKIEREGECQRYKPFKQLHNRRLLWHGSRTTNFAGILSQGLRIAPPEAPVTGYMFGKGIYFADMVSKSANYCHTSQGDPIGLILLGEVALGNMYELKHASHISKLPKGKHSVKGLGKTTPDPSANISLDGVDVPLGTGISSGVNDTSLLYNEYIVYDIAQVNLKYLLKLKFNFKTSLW
Test: Inhibition of recombinant human full-length Myc/His-tagged Parp-1 expressed in baculovirus infected Sf21 insect cells assessed as reduction in auto-PARsylation using activated DNA as substrate incubated for 150 mins in presence of NAD and bio-NAD as co-substrate by TR-FRET assay
Values of IC50 strictly less than 1000 nM map to True, and values of at least 1000 nM map to False.

Field: example entries. Status: answers known.
In [3]: df
Out[3]:
                                chem_smiles  category
0  CC(C)(O)c1ccc(-c2nc3ccc(F)cc3c(=O)[nH]2)cc1      True
1  CC(C)(O)c1ccc(-c2nc3cccc(Cl)c3c(=O)[nH]2)cc1     False
2  Cc1cc(F)cc2c(=O)[nH]c(-c3ccc(C(C)(C)O)cc3)nc12      True
3  CC(C)(O)c1ccc(-c2nc3c(F)ccc(F)c3c(=O)[nH]2)cc1     False
4  Cc1cc(F)cc2c(=O)[nH]c(-c3ccc(C4CCNCC4)cc3)nc12.Cl      True
5  Cc1cc(F)cc2c(=O)[nH]c(-c3ccc(C4CCN(C)CC4)cc3)nc12      True
6  CC(C)(O)c1ccc(-c2nc3ccc(Cl)cc3c(=O)[nH]2)cc1     False
7  CN1CCN(c2ccc(-c3nc4ccc(F)cc4c(=O)[nH]3)cc2)CC1      True
8  Cc1cccc2c(=O)[nH]c(-c3ccc(C(C)(C)O)cc3)nc12      True
9  CC(C)(C)c1ccc(-c2nc3ccc(F)cc3c(=O)[nH]2)cc1     False

Challenge: A record lists "O=c1[nH]c(-c2ccc3c(c2)OCO3)nc2ccccc12" . Is its IC50 below 1000 nM?
Response given: False

Challenge: Next up: "CC(C)(O)c1ccc(-c2nc3c(F)cc(F)cc3c(=O)[nH]2)cc1"
Response given: True

Challenge: What do we get for "Cc1cc(F)cc2c(=O)[nH]c(-c3ccc(C(C)(C)OCCO)cc3)nc12" ?
Response given: True

Challenge: Also check "CC(C)(OCCO)c1ccc(-c2nc3ccc(F)cc3c(=O)[nH]2)cc1"
Response given: False
